target-system: Hypoxia-inducible factor 1-alpha (Homo sapiens) (UniProt Q16665)
Sequence (Q16665 whole entry, looked up): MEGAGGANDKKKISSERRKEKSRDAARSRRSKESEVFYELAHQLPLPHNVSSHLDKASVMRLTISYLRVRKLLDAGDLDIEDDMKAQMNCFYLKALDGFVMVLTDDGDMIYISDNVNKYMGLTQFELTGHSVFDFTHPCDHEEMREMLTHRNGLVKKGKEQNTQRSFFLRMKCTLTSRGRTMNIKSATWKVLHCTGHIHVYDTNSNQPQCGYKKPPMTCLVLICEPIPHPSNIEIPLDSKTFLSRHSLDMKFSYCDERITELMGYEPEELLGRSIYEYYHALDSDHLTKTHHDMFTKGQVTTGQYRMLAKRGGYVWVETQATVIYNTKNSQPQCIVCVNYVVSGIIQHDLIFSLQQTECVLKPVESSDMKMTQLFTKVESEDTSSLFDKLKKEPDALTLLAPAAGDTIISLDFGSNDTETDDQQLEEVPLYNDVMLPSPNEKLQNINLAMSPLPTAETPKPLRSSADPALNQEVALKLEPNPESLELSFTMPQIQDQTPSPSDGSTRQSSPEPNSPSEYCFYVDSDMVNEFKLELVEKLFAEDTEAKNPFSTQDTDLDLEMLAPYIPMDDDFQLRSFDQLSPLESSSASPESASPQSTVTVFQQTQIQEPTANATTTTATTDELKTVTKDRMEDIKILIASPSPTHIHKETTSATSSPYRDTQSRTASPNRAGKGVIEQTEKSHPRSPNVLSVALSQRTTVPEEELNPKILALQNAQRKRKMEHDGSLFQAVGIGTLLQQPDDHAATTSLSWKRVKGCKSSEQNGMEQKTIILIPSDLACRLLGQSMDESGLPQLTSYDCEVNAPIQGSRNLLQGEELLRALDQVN
experimental-details: Stabilization of hydroxylated HIF-1alpha in human HeLa cells at 50 uM incubated for 2 hrs by Western blot analysis relative to VH298
Format: cell-based
readout-name: Activity (%)

1. Cc1ncsc1-c1ccc([C@H](C)NC(=O)[C@@H]2C[C@@H](O)CN2C(=O)[C@@H](NC(=O)C2(F)CC2)C(C)(C)C)cc1F
2. Cc1cc(-c2scnc2C)ccc1CNC(=O)[C@@H]1C[C@@H](O)CN1C(=O)[C@@H](NC(=O)C1(C#N)CC1)C(C)(C)C
3. Cc1cc(-c2scnc2C)ccc1[C@H](C)NC(=O)[C@@H]1C[C@@H](O)CN1C(=O)[C@@H](NC(=O)C1(F)CC1)C(C)(C)C
Quick one: which order do the items above go in by Activity, smallest to largest? Arrange the labels as the request states and list them.
2, 1, 3

I. Cc1ncsc1-c1ccc(CNC(=O)[C@@H]2C[C@@H](O)CN2C(=O)[C@@H](NC(=O)C2(F)CC2)C(C)(C)C)cc1F
II. COc1cc(-c2scnc2C)c(F)cc1[C@H](C)NC(=O)[C@@H]1C[C@@H](O)CN1C(=O)[C@@H](NC(=O)C1(F)CC1)C(C)(C)C
Would you kindly point out which of I and II has the smaller Activity figure? State the label of the item chosen.
I

====

target-system: Von Hippel-Lindau disease tumor suppressor/Elongin B/Elongin C (Homo sapiens, UniProt P40337)
Sequence (P40337 whole entry, looked up, the tested form may be a part): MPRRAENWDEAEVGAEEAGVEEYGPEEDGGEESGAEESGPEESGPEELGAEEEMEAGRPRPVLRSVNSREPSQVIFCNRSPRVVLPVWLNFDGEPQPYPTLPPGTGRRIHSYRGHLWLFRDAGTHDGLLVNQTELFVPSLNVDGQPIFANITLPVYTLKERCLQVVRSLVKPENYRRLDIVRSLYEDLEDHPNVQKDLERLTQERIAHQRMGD
experimental-details: Inhibition of VHL/Elongin B/Elongin C (unknown origin) using FAM-DEALA-Hyp-YIPD as substrate by fluorescence polarization assay
readout-name: IC50 (nM)
Give the value in nM but do not write nM after it.

Fill in the blank: the reported IC50 of `Cc1ncsc1-c1ccc(CNC(=O)[C@@H]2C[C@@H](O)CN2C(=O)Cc2cccc(N)c2C)cc1` is ____.
900

====

target-system: Von Hippel-Lindau disease tumor suppressor/Elongin B/Elongin C (Homo sapiens, UniProt P40337)
experimental-details: Binding affinity to VHL (54 to 213 residues)/N-terminal Avi-tagged biotinylated-Elongin B (1 to 104 residues)/Elongin C (17 to 112 residues) (unknown origin) expressed in Escherichia coli cells immobilized in SA sensor chip assessed as dissociation constant by SPR analysis
pKd: −log10 of the molar value.
readout-name: pKd

A. CC(=O)N[C@H](C(=O)N1C[C@H](O)C[C@H]1C(=O)NCc1ccc(-c2scnc2C)cc1C(F)(F)F)C(C)(C)C
B. CC(=O)N[C@H](C(=O)N1C[C@H](O)C[C@H]1C(=O)NCc1ccc(-c2scnc2C)c(C(F)(F)F)c1)C(C)(C)C
Would you kindly point out which of A and B has the smaller pKd figure? State the label of the item chosen.
B
(B: 5.52, A: 6.57)

====

target-system: Von Hippel-Lindau disease tumor suppressor/Elongin B/Elongin C (Homo sapiens)
experimental-details: Binding affinity to N-terminal His6-tagged VHL (54 to 213 residues)/Elongin B (1 to 104 residues)/Elongin C (17 to 112 residues) (unknown origin) expressed in Escherichia coli BL21(DE3) cells assessed as dissociation constant by ITC analysis
readout-name: pKd
The scale used: pKd is minus the common logarithm of the concentration in molar units.

Reported pKd for Von Hippel-Lindau disease tumor suppressor/Elongin B/Elongin C (Homo sapiens), given `CC(=O)N[C@H](C(=O)N1C[C@H](O)[C@H](F)[C@H]1C(=O)NCc1ccc(-c2scnc2C)cc1)C(C)(C)C` ?
6.61

====

target-system: von Hippel-Lindau disease tumor suppressor (Homo sapiens, UniProt P40337)
Sequence (P40337 whole entry, the tested form may be a part): as the sequence (P40337 whole entry, looked up, the tested form may be a part) above
experimental-details: Inhibition of NanoLuc-fused VHL (unknown origin) transfected in live HEK293 cells using NanoGlo substrate incubated for 30 mins by tracer based NanoBRET assay
Format: cell-based
readout-name: IC50 (nM)

I. Cc1cc(-c2scnc2C)ccc1[C@H](C)NC(=O)[C@@H]1C[C@@H](O)CN1C(=O)[C@@H](NC(=O)C1(F)CC1)C(C)(C)C
II. Cc1cc(-c2scnc2C)c(F)cc1[C@H](C)NC(=O)[C@@H]1C[C@@H](O)CN1C(=O)[C@@H](NC(=O)C1(F)CC1)C(C)(C)C
Would you kindly point out which of I and II has the smaller IC50 figure? State the label of the item chosen.
I

====

target-system: Von Hippel-Lindau disease tumor suppressor/Elongin B/Elongin C (Homo sapiens)
experimental-details: Binding affinity to biotinylated VHL/Elongin B/Elongin C (unknown origin) immobilized in SA sensor chip assessed as dissociation constant by SPR analysis
Type: protein-complex assay
readout-name: pKd
The scale used: pKd is minus the common logarithm of the concentration in molar units.

Fill in the blank: the reported pKd of `Cc1cc(-c2scnc2C)c(F)cc1CNC(=O)[C@@H]1C[C@@H](O)CN1C(=O)[C@@H](NC(=O)C1(F)CC1)C(C)(C)C` is ____.
7.14

====

target-system: Hypoxia-inducible factor 1-alpha (Homo sapiens)
experimental-details: Stabilization of hydroxylated HIF-1alpha in human HeLa cells at 50 uM incubated for 2 hrs by Western blot analysis relative to VH298
Assay type: cell-based
readout-name: Activity (%)

[[record]]
smiles_record = "Cc1ncsc1-c1ccc([C@H](C)NC(=O)[C@@H]2C[C@@H](O)CN2C(=O)[C@@H](NC(=O)C2(C#N)CC2)C(C)(C)C)cc1F"
readout_name = "Activity"
unit_info = "%"
measurement = 123

[[record]]
smiles_record = "Cc1ncsc1-c1ccc(CNC(=O)[C@@H]2C[C@@H](O)CN2C(=O)[C@@H](NC(=O)C2(C#N)CC2)C(C)(C)C)cc1F"
readout_name = "Activity"
unit_info = "%"
measurement = 74

[[record]]
smiles_record = "Cc1cc(-c2scnc2C)ccc1CNC(=O)[C@@H]1C[C@@H](O)CN1C(=O)[C@@H](NC(=O)C1(F)CC1)C(C)(C)C"
readout_name = "Activity"
unit_info = "%"
measurement = 120


I. COc1cc(-c2scnc2C)c(F)cc1CNC(=O)[C@@H]1C[C@@H](O)CN1C(=O)[C@@H](NC(=O)C1(F)CC1)C(C)(C)C
II. Cc1cc(-c2scnc2C)c(F)cc1CNC(=O)[C@@H]1C[C@@H](O)CN1C(=O)[C@@H](NC(=O)C1(F)CC1)C(C)(C)C
Would you kindly point out which of I and II has the smaller Activity figure? State the label of the item chosen.
I
(I: 98%, II: 153%)

====

target-system: Hypoxia-inducible factor 1-alpha (Homo sapiens)
experimental-details: Stabilization of HIF-1alpha in HEK293 cells at 50 uM incubated for 2 hrs by Western blot analysis relative to VH298
Format: cell-based
readout-name: Activity (%)

[[record]]
smiles_record = "Cc1cc(-c2scnc2C)ccc1CNC(=O)[C@@H]1C[C@@H](O)CN1C(=O)[C@@H](NC(=O)C1(F)CC1)C(C)(C)C"
readout_name = "Activity"
measurement = 78

[[record]]
smiles_record = "COc1cc(-c2scnc2C)c(F)cc1CNC(=O)[C@@H]1C[C@@H](O)CN1C(=O)[C@@H](NC(=O)C1(F)CC1)C(C)(C)C"
readout_name = "Activity"
measurement = 73

[[record]]
smiles_record = "Cc1cc(-c2scnc2C)ccc1[C@H](C)NC(=O)[C@@H]1C[C@@H](O)CN1C(=O)[C@@H](NC(=O)C1(C#N)CC1)C(C)(C)C"
readout_name = "Activity"
measurement = 90

[[record]]
smiles_record = "Cc1ncsc1-c1ccc(CNC(=O)[C@@H]2C[C@@H](O)CN2C(=O)[C@@H](NC(=O)C2(F)CC2)C(C)(C)C)cc1F"
readout_name = "Activity"
measurement = 89

[[record]]
smiles_record = "Cc1ncsc1-c1ccc([C@H](C)NC(=O)[C@@H]2C[C@@H](O)CN2C(=O)[C@@H](NC(=O)C2(F)CC2)C(C)(C)C)cc1F"
readout_name = "Activity"
measurement = 92


====

target-system: Hypoxia-inducible factor 1-alpha (Homo sapiens)
experimental-details: Stabilization of HIF-1alpha in HEK293 cells at 50 uM incubated for 2 hrs by Western blot analysis relative to VH298
Assay type: cell-based
readout-name: Activity (%)

Worked examples, 5 compounds total:
[[record]]
smiles_record = "Cc1cc(-c2scnc2C)c(F)cc1[C@H](C)NC(=O)[C@@H]1C[C@@H](O)CN1C(=O)[C@@H](NC(=O)C1(F)CC1)C(C)(C)C"
measurement = 152

[[record]]
smiles_record = "Cc1cc(-c2scnc2C)ccc1[C@H](C)NC(=O)[C@@H]1C[C@@H](O)CN1C(=O)[C@@H](NC(=O)C1(F)CC1)C(C)(C)C"
measurement = 224

[[record]]
smiles_record = "COc1cc(-c2scnc2C)c(F)cc1[C@H](C)NC(=O)[C@@H]1C[C@@H](O)CN1C(=O)[C@@H](NC(=O)C1(F)CC1)C(C)(C)C"
measurement = 145

[[record]]
smiles_record = "Cc1ncsc1-c1ccc(CNC(=O)[C@@H]2C[C@@H](O)CN2C(=O)[C@@H](NC(=O)C2(C#N)CC2)C(C)(C)C)cc1F"
measurement = 18

[[record]]
smiles_record = "Cc1cc(-c2scnc2C)c(F)cc1CNC(=O)[C@@H]1C[C@@H](O)CN1C(=O)[C@@H](NC(=O)C1(F)CC1)C(C)(C)C"
measurement = 110


A. Cc1ncsc1-c1ccc([C@H](C)NC(=O)[C@@H]2C[C@@H](O)CN2C(=O)[C@@H](NC(=O)C2(C#N)CC2)C(C)(C)C)cc1F
B. Cc1cc(-c2scnc2C)ccc1CNC(=O)[C@@H]1C[C@@H](O)CN1C(=O)[C@@H](NC(=O)C1(C#N)CC1)C(C)(C)C
Which one would you say has the larger Activity value: A , or B ? State the label of the item chosen.
B
(B: 78%, A: 48%)
